system: human serum protein; assay: Non-specific adsorption of low-pI TM2 to human serum protein-immobilized magnetic beads; type: binding; settings: FIG. 1
metric.name: decrease of adsorption to human serum protein compared to the wild type TM2 (%)

INSERT INTO results (molecule, quantitative_result) VALUES
  ('TM2 K73Q: TM2 mutant in which lysine at position 73 was replaced with glutamine; SEQ ID NO: 6 (protein, Synthetic TM2 K73Q) MSDVQSSLTGTWYNELNSKMELTANKDGTLTGKYLSKVGDVYVPYPLSGRYNLQPPAGQGVALGWAVSWENSQIHSATTWSGQFFSESSPVILTQWLLSSSTARGDVWESTLVGNDSFTKTAPTEQQIAHAQLHCRAPRLK', 40),
  ('TM2 K26A: TM2 mutant in which lysine at position 26 was replaced with alanine; SEQ ID NO: 4 (protein, Synthetic TM2 K26A) MSDVQSSLTGTWYNELNSKMELTANADGTLTGKYLSKVGDVYVPYPLSGRYNLQPPAGQGVALGWAVSWENSKIHSATTWSGQFFSESSPVILTQWLLSSSTARGDVWESTLVGNDSFTKTAPTEQQIAHAQLHCRAPRLK', 30);

These entries and their values trace back to patent US8304236B2.
